Taken from ChEMBL document CHEMBL1909607.

Biological target: Small conductance calcium-activated potassium channel protein 3 (Homo sapiens)
Sequence (Q9UGI6 whole entry): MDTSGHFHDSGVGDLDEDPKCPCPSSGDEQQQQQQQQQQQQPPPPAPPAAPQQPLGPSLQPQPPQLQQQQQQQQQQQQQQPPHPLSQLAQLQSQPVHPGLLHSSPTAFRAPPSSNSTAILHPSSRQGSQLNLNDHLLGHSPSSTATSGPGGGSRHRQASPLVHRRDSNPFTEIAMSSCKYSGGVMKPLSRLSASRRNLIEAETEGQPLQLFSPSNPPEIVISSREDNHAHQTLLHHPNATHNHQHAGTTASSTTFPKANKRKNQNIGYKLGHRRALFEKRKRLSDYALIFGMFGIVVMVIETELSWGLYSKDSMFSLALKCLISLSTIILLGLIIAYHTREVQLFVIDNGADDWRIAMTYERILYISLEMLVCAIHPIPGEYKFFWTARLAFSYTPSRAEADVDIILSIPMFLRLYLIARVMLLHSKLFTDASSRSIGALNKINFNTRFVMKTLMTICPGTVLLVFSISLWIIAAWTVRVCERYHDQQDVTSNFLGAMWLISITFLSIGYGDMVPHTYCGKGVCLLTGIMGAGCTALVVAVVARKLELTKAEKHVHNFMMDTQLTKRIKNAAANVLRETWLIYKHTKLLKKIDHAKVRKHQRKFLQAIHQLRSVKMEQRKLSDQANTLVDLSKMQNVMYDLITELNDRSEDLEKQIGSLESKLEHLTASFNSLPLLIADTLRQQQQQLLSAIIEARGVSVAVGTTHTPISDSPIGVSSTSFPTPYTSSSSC
Test: Displacement of [125I]-apamin from cloned SK3 channel expressed in human HEK293 cells after 1 hr by liquid scintillation counting
endpoint_label: log10(Ki) (log10 of the value in nM)
Answers are given as log10 of Ki in nM.

These recorded examples may help you get a feel for the data.
- CC(C)c1cccc2cc[n+](C)c(Cc3cccc(Cc4c5c(C(C)C)cccc5cc[n+]4C)c3)c12: 1.66
- CC(C)c1cccc2cc[n+](C)c(CCCCc3c4c(C(C)C)cccc4cc[n+]3C)c12: 2.33
- CC(C)c1cccc2cc[n+](C)c(CCCCCc3c4c(C(C)C)cccc4cc[n+]3C)c12: 2.76
- CC(C)c1cccc2cc[n+](C)c(CCCc3c4c(C(C)C)cccc4cc[n+]3C)c12: 2.92

Query molecule follows.
### Prompt Field request: log10(Ki) | item: `CC(C)c1cccc2cc[n+](C)c(Cc3ccc(Cc4c5c(C(C)C)cccc5cc[n+]4C)cc3)c12`
### Response 3.10
